Assay: Drug uptake in Sprague-Dawley rat cartilage at 0.5 mg/joint measured on day 56
Type: ADME, tissue-based, Cartilage tissue
Settings: read-out: Drug uptake
Quantity Name: concentration at 56 days

Exercise: Kindly indicate its recorded concentration at 56 days. Item: `Cc1c(C(=O)O)ccc2c1CC[C@@H]2NC(=O)c1cc(C(=O)NCc2ccc3c(c2)NC(=O)CO3)nc2ccnn12`
Solution: ≥ 2000 nM

---

Target: Neutrophil collagenase (Homo sapiens, UniProt P22894)
Sequence (P22894 whole entry): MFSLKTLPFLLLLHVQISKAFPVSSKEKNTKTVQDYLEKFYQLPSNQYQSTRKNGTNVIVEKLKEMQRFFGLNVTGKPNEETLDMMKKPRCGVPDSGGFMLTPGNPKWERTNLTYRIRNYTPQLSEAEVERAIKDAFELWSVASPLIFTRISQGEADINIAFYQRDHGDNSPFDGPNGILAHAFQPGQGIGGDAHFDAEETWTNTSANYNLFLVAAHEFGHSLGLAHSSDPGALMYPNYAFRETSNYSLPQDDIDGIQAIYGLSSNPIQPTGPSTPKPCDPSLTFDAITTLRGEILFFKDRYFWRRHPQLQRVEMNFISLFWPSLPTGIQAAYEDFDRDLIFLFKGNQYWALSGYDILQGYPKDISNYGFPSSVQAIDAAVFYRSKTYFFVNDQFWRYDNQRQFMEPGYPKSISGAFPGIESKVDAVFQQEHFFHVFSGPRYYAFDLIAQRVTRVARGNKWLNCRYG
Assay: Inhibition of human recombinant MMP8 using MCA-Pro-Leu-Gly-Leu-Dpa-Ala-Arg-NH2.AcOH as substrate preincubated for 10 mins measured by fluorescence analysis
# IC50 per record follows

Chemical Structure: Cc1c(C(=O)O)ccc2c1CC[C@@H]2NC(=O)c1cc(C(=O)NCc2ccc(F)c(C(F)(F)F)c2)nc2c(F)cnn12
IC50: > 20 µM

Exercise: Kindly indicate its recorded IC50. Item: `Cc1c(C(=O)O)ccc2c1CC[C@@H]2NC(=O)c1cc(C(=O)NCc2ccc3c(c2)NC(=O)CO3)nc2ccnn12`
Solution: 3.2 µM

---

Test: Drug uptake in Sprague-Dawley rat synovial lavage at 0.5 mg/joint measured after 21 days
Assay type: ADME
Conditions: read-out: Drug uptake
Quantity Name: concentration at 504 h (nM)
State just the number; it will be interpreted in nM.

Exercise: Kindly indicate its recorded concentration at 504 h. Item: `Cc1c(C(=O)O)ccc2c1CC[C@@H]2NC(=O)c1cc(C(=O)NCc2ccc3c(c2)NC(=O)CO3)nc2ccnn12`
Solution: 300

---

# pIC50 per record follows
Molecular target: Disintegrin and metalloproteinase domain-containing protein 17 (Homo sapiens)
Sequence (P78536 whole entry, the tested form may be a part): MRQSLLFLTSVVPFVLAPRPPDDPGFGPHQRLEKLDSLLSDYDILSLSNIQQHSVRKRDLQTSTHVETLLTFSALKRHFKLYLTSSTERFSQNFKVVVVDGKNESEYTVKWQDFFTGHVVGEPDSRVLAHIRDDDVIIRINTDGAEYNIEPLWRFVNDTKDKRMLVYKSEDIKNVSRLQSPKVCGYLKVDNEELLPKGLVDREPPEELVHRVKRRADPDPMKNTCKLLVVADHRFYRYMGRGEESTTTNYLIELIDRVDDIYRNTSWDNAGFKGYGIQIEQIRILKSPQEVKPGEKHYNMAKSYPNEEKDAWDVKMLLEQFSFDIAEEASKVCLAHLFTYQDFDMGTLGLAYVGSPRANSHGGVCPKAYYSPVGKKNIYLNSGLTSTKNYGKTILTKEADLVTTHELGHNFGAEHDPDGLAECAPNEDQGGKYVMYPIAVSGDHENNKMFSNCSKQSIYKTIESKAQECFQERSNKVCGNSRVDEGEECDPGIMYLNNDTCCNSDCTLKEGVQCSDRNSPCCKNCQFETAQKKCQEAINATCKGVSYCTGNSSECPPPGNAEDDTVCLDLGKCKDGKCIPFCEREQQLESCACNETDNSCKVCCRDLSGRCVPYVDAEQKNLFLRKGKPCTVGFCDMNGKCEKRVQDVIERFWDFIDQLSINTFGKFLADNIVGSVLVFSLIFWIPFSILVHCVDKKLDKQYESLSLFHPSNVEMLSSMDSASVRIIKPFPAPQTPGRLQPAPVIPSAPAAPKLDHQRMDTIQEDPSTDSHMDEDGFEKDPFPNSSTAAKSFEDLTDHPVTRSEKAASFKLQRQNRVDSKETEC
Experiment: Inhibition of human recombinant TACE using MCA-Pro-Leu-Ala-Gln-Ala-Val-Dpa-Arg-Ser-Ser-Ser-Arg-NH2 as substrate preincubated for 10 mins measured by fluorescence analysis
pIC50: −log10 of the molar value.

Chemical Structure: Cc1c(C(=O)O)ccc2c1CC[C@@H]2NC(=O)c1cc(C(=O)NCc2ccc3c(c2)NC(=O)CO3)nc2ccnn12
pIC50: < 4.70

Consider now this further compound.
Exercise: Kindly indicate its recorded pIC50. Item: `Cc1c(C(=O)O)ccc2c1CC[C@@H]2NC(=O)c1cc(C(=O)NCc2ccc(F)c(C(F)(F)F)c2)nc2c(F)cnn12`
Solution: < 4.70

---

Target: A disintegrin and metalloproteinase with thrombospondin motifs 4 (Homo sapiens, UniProt O75173)
Sequence (O75173 whole entry): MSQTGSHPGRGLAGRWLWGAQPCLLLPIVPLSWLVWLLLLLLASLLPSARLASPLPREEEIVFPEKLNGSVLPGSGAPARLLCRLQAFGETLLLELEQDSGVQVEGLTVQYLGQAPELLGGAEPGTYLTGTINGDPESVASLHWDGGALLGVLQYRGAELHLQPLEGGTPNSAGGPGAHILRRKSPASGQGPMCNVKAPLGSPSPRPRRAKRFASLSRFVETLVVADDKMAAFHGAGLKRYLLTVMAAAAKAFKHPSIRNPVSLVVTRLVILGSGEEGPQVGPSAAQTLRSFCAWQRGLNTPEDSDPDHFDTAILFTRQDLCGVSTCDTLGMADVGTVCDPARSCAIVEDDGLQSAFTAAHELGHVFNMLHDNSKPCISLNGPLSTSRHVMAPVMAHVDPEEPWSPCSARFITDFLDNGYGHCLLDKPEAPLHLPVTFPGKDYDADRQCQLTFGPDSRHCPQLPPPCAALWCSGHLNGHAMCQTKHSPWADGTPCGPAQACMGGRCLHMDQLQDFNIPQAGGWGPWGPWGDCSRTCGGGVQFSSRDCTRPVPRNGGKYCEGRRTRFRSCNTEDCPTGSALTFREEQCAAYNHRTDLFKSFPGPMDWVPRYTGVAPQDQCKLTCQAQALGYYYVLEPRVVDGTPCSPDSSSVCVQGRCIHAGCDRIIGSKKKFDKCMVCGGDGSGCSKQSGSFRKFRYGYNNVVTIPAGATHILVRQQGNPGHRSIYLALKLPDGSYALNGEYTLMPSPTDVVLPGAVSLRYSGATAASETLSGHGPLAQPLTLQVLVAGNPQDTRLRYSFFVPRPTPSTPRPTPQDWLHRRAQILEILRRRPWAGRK
Test: Inhibition of human recombinant aggrecanase 1 using aggrecan-IGD as substrate measured after 15 mins by ELISA
# IC50 per record follows
State just the number; it will be interpreted in µM.

Chemical Structure: Cc1c(C(=O)O)ccc2c1CC[C@@H]2NC(=O)c1cc(C(=O)NCc2ccc3c(c2)NC(=O)CO3)nc2ccnn12
Units Symbol: µM
IC50: 2.4

Exercise: Kindly indicate its recorded IC50. Item: `Cc1c(C(=O)O)ccc2c1CC[C@@H]2NC(=O)c1cc(C(=O)NCc2ccc(F)c(C(F)(F)F)c2)nc2c(F)cnn12`
Solution: 7
